- test-protocol: Cyto protection: cytotoxicity on aortic smooth muscle cells
- Assay type: cell-based
- condition-details: aortic smooth muscle cells; rat cells, MEM containing 10% CS; read-out: LD50 Aortic smooth muscle cells
property: CC50 (µg/mL)
Just the number in µg/mL, nothing appended.

# get_value(readout='CC50', item= COC12C(COC(N)=O)C3=C(C(=O)C(C)=C(N)C3=O)N1CC1NC12 (centres unmarked) [Mytomycin C, reference compound] ) 0.01
